# target desc: T1, Chryseobacterium gambrini deamidase polypeptide, wildtype, with His-tag (Chryseobacterium gambrini)
# T1 sequence: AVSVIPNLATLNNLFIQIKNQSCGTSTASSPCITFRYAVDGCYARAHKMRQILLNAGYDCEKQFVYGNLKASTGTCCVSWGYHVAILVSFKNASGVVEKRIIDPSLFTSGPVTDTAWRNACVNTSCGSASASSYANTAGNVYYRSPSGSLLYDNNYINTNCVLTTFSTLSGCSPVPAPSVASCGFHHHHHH
# experiment summary: cell-based or functional assay
assay readout: NanoDSF thermal unfolding temperature (° C.)

Chryseobacterium gambrini propeptide Y94P (protein) NQDPNLVVKENNENAMRDFGSTIPVGIQKEGNVLKVSFIISAQFYEIKDSKENEAFISMIKSAIENETPVHVFLKKNSNEIAKVEKATDEDVTPFKSIFTKEVKEENRK
81.1
Chryseobacterium gambrini propeptide Y45T (protein) NQDPNLVVKENNENAMRDFGSTIPVGIQKEGNVLKVSFIISAQFTEIKDSKENEAFISMIKSAIENETPVHVFLKKNSNEIAKVEKATDEDVTYFKSIFTKEVKEENRK
79.3
Chryseobacterium gambrini propeptide F38C (protein) NQDPNLVVKENNENAMRDFGSTIPVGIQKEGNVLKVSCIISAQFYEIKDSKENEAFISMIKSAIENETPVHVFLKKNSNEIAKVEKATDEDVTYFKSIFTKEVKEENRK
82.3

Source of measurements: patent US20250215412A1
